# assay.overview: Rat pharmacokinetic study, second study (dose response)
# Format: in vivo, rats
# condition.context: plasma, po; Second Study, rat p.o. 15 mg/kg (90 mg/m^2)
measured.property: Cmax (ng/mL)
One number for each entry, in ng/mL.

input: In one line, give reported Cmax of the entry O=C(Nc1ccncc1)C(=O)c1cn(Cc2ccc(Cl)cc2)c2ccccc12 [Bulk Crystalline Drug, indibulin] .
output: 24

###

# assay.overview: Rat pharmacokinetic study, first study
# Assay type: in vivo, rats (Sprague Dawley, male)
# condition.context: male, Sprague Dawley, rat, plasma, po, 15 mg/kg, First Study, rat p.o. 15 mg/kg (90 mg/m^2); read-out: AUC0-t
measured.property: AUC(0-t)
Respond with a number, then the unit of measure.

input: Note down AUC(0-t) recorded for O=C(Nc1ccncc1)C(=O)c1cn(Cc2ccc(Cl)cc2)c2ccccc12 [Bulk Crystalline Drug, indibulin]
output: 31 ng·h/mL

Data origin, for the record: patent US20140004192A1
